Data provenance is ChEMBL document CHEMBL1201862.

Kindly state GI50 for each of the entries shown.
# Test system: SNB-19
# TEST: NCI tumour cell line growth inhibition, 48 h
Activity calls are given as the source filed them. No stated cut-off is given here; in the data, active = GI50 up to about 1.1 µM and inactive = higher.

Could you tell me which GI50 is on file for N=C(N)NS(=O)(=O)c1ccc(NCc2cccc3c(=O)c4ccc(Cl)cc4oc23)cc1 ?
5.97 µM (inactive)

Also check CC1=NNC(=S)NCCCN2CCN(CCCNC(=S)NN=C(C)C=NNC(=S)NCCCN3CCN(CCCNC(=S)NN=C1)CC3)CC2
> 100 µM (inactive)

Item: O=C1Nc2ccc(S(=O)(=O)O)cc2/C1=C1/Nc2ccc(Br)cc2C1=O
> 100 µM (inactive)

How about this compound: C(=N\Nc1nnc2c(n1)[nH]c1ccccc12)/c1cccnc1
> 100 µM (inactive)

# next compound below
# input compound: Oc1ccc(/C=C/c2cc(O)cc3c2C(c2cc(O)cc(O)c2)C(c2ccc(O)c(O)c2)O3)cc1 (stereo not given) ; wanted: its GI50
18.6 µM (inactive)

###

# Tested on: SR
# TEST: NCI tumour cell line growth inhibition, 48 h
Activity calls are given as the source filed them. Cut-off read from the data, not from the text of the source: active = GI50 up to about 1.1 µM and inactive = higher.
Field: GI50. Provide a value for each of the compounds that follow.

Some compounds with recorded GI50:
Record lookup: for SR, what GI50 belongs to COc1ccc2cc(NC(=O)N/N=C\c3ccc([N+](=O)[O-])cc3)ccc2c1 ?
> 100 µM (inactive)

Same thing, different compound: COc1cc(C2C(Cl)C(=O)N2c2c(C)n(C)n(-c3ccccc3)c2=O)ccc1O (stereo not given)
12 µM (inactive)

Similarly, CC(=O)Nc1ccc(CNc2cc(=O)n(C)c(=O)[nH]2)cc1 ?
> 100 µM (inactive)

Parameters: items (list). Returns: GI50 for each item.
1. COC(=O)NC(Nc1ccccn1)(C(F)(F)F)C(F)(F)F
2. Clc1ccc(C(c2ccccc2Cl)C(Cl)Cl)cc1 (stereo not given)

1. > 100 µM (inactive)
2. 18.7 µM (inactive)

###

Answer each item with its documented GI50.
# Tested on: OVCAR-5
# TEST: NCI tumour cell line growth inhibition, 48 h
The source made the active and inactive calls. Rule as the data show it: active = GI50 up to about 1.1 µM and inactive = higher.

# get_value(readout= GI50, system= OVCAR-5) for O=C(O)C1CC=CCC1C(=O)Nc1cccc(O)c1 (stereo unspecified)
> 100 µM (inactive)

Give one value of GI50 per listed molecule.
1. O=c1ccs[nH]1
2. Cc1cc2c(c(C(N)=O)c1C)-c1cc(Cl)cc(Cl)c1C2=O
3. COC(=O)c1ccc(C(=O)OC)c2nc3cc(Cl)ccc3nc12
4. CC1=C/C(=N/N2C(=O)/C(=C/c3ccc(Cl)cc3)N=C2c2ccccc2)CC(C)(C)C1
5. O=C1CC2(CCC(O)(c3cccs3)C(C(=O)c3cccs3)C2)C(=O)c2ccccc2N1 (stereo unspecified)

1: 16.3 µM (inactive); 2: > 100 µM (inactive); 3: > 100 µM (inactive); 4: > 100 µM (inactive); 5: > 100 µM (inactive)

###

# Test system: T47D
# TEST: NCI tumour cell line growth inhibition, 48 h
Active and inactive are the calls of the source. Rule as the data show it: active = GI50 up to about 1.1 µM and inactive = higher.
Select the correct class. Options are true (1) for active, false (0) for inactive and nothing else.

Before answering, review these 5 worked examples.
For this compound, state the assay outcome: CCCCCCCSCC(O)COC(c1ccccc1)(c1ccccc1)c1ccccc1 (centres undefined)
false (0)

What do you have for C(=N\Nc1nnc2c(n1)[nH]c1ccccc12)/c1cccnc1 ?
false (0)

Please answer likewise for N#Cc1[nH]c(=O)n(-c2ccccc2)c1N
false (0)

Would you kindly repeat that for COC(=O)Cc1c2n(c3ccccc13)C(=O)N1c3ccccc3C(CC(=O)OC)C21 (centres undefined) ?
false (0)

Then NCC1CCN(c2nc3ccccc3c3c2CCCC3)CC1 ?
false (0)

Further cases:
# lookup: test call for COC(=O)C1(C)CCCC2(C)c3cc(OC)ccc3C(=O)C(Br)C12 (centres undefined)
false (0)

Follow-up item: CN(Cc1cnc2nc(N)nc(N)c2n1)c1ccc(C(=O)NC(CCC(=O)O)C(=O)O)cc1C(F)(F)F (centres undefined)
false (0)

Next compound: CC(C)C1CC(CO)(CNc2cc(Cl)nc(N)n2)C1 (centres undefined)
true (1)

Can you handle CCCCCCCCCCCCCCCCCCNc1ccn(C2OC(COP(=O)(O)OCC(COP(=O)(O)OCC3OC(n4cc(C)c(=O)[nH]c4=O)CC3N=[N+]=[N-])OCCCCCCCCCCCCCCCCCC)C(O)C2O)c(=O)n1 (centres undefined) next?
false (0)
